# systemName: human TAS2R1 (Homo sapiens, UniProt Q9NYW7)
# Construct: expressed in transfected cells; host or cells: HEK293T-Gα16gust44
# Sequence (Q9NYW7 1-299): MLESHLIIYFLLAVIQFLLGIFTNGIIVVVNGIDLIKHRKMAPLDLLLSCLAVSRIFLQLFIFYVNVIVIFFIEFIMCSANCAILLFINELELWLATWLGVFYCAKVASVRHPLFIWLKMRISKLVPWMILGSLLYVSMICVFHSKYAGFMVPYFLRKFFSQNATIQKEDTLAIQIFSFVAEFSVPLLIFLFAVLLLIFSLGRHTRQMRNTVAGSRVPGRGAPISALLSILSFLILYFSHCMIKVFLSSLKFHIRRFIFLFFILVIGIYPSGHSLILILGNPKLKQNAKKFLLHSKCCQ
# experimentSummary: Calcium imaging assay (FLIPR), HEK293T-Gα16gust44 cells transfected with human TAS2R1
# Format: cell-based
# settings: Time 58.796 s
quantityName: RLU (RLU)
Give just the numeric value; RLU need not be written.

**Q:** Entry `C[C@H](CCC(=O)O)[C@H]1CC[C@H]2[C@@H]3[C@@H](O)C[C@@H]4C[C@H](O)CC[C@]4(C)[C@H]3CC[C@]12C` : reported RLU = ?
**A:** 690.888

**Q:** Given the compound `C[C@H](CCC(=O)O)[C@H]1CC[C@H]2[C@@H]3CC[C@@H]4C[C@H](O)CC[C@]4(C)[C@H]3CC[C@]12C` , what is its reported RLU?
**A:** 815.634

**Q:** So what's the measured RLU for this one? `C[C@H](CCC(=O)O)[C@H]1CC[C@H]2[C@@H]3[C@H](O)C[C@@H]4C[C@H](O)CC[C@]4(C)[C@H]3C[C@H](O)[C@]12C`
**A:** 754.05

**Q:** Any idea what its RLU is? The compound is `C[C@H](CCC(=O)O)[C@H]1CC[C@H]2[C@@H]3[C@H](O)C[C@@H]4C[C@H](O)CC[C@]4(C)[C@H]3CC[C@]12C`
**A:** 915.714
